biological target: A1PI (Homo sapiens); construct: Human plasma is currently the only approved source of therapeutic AlPI; experiment: A1PI purification from 5 mg hSA + 1 mg A1PI on peptide column, A1PI mass balance; assay type: binding; conditions: A1PI; 5 mg hSA + 1 mg A1PI, 4° C.; relative to total eluted
Sequence (P01009 25-418): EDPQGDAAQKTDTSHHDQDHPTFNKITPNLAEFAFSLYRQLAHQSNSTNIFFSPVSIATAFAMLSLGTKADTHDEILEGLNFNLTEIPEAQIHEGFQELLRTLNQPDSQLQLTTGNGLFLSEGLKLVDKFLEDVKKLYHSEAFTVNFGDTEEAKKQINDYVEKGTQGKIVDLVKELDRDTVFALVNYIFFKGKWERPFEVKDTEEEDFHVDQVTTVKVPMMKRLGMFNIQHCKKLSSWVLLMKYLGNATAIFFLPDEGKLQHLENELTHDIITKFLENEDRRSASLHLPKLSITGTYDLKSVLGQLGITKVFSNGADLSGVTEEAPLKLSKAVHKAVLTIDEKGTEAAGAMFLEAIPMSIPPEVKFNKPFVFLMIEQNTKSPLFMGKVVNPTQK
Ends that are not written are not given here.
measured parameter: Percent Eluted by Fraction, 3M NaCl (%)

(P) ARWYIH
(Q) QYHFWY
(R) PYWIVR
(S) VIWLVR
# rank above entries by Percent Eluted by Fraction, 3M NaCl (max first, min last) Your reply should list the labels following the order given in the request.
P, R, S, Q
(P: 5%, R: 3%, S: 1%, Q: 0%)
